The compounds listed here are annotated with their IC50.
- measurement.target: Recombinant STAT6 protein (STAT6(W123-T658)) (Homo sapiens, UniProt P42226)
- Construct: Recombinant STAT6 protein (STAT6(W123-T658))
- Sequence (P42226 123-658): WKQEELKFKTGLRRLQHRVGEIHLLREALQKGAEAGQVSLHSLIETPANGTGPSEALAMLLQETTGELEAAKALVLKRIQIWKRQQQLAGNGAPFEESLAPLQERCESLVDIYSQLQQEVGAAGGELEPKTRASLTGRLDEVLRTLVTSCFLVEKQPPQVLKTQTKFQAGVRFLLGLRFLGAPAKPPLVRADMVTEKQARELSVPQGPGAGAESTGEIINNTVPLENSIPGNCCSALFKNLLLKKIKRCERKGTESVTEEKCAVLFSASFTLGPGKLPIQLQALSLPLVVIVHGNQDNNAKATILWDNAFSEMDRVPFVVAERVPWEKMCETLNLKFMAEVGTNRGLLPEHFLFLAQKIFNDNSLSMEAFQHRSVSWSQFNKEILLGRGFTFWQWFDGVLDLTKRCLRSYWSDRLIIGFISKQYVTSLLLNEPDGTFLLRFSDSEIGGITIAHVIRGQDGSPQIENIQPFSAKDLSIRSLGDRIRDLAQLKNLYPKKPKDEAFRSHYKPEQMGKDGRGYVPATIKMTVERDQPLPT
- protocol.summary: STAT6 Fluorescence Polarization (FP) Assay
- experimental.parameters: STAT6(W123-T658) 250 nM, probe 5-FAM-ApYKPFQDLI-NH2 2 nM, 45-minute incubation

compound	IC50
Cc1ccc2onc(C(=O)N3CC[C@H]4CC[C@@H](C(=O)N5CCOCC5)N4C(=O)[C@@H](NC(=O)c4ccc5c(F)cc(CP(=O)(O)O)cc5c4)C3)c2c1 [Compound 379]	300 to 3000 nM
CCN(C(=O)[C@@H]1CC[C@@H]2CCN(C(C)=O)C[C@H](NC(=O)c3cc4cc(C(F)(F)P(=O)(O)O)ccc4[nH]3)C(=O)N21)c1ccccc1 [Compound 169]	300 to 3000 nM
CC(=O)N1CC[C@H]2CC[C@@H](C(=O)N3C[C@@H](C#N)[C@H](c4cccnc4)C3)N2C(=O)[C@@H](NC(=O)c2cc3cc(C(F)(F)P(=O)(O)O)ccc3s2)C1 (relative stereo) [Compound 150]	≤ 300 nM
CC(=O)N1CC[C@H]2CC[C@@H](C(=O)N3C[C@@H](C#N)C[C@@H]3Cc3ccccc3)N2C(=O)[C@@H](NC(=O)c2cc3cc(C(F)(F)P(=O)(O)O)ccc3s2)C1 [Compound 42]	300 to 3000 nM
N#Cc1ccccc1-c1ccc(NC(=O)[C@@H]2CC[C@@H]3CCN(C(=O)Cc4ccccc4)C[C@H](NC(=O)c4cc5cc(C(F)(F)P(=O)(O)O)ccc5[nH]4)C(=O)N32)c(F)c1 [Compound 276]	300 to 3000 nM

* * *

- Test system: pY705-STAT3 in Peripheral Blood Mononuclear Cells (PBMC)
- protocol.summary: MSD-pSTAT-PBMC Assay (pSTAT3, IL-6 stimulated)
- Format: cell-based, Human
- experimental.parameters: compound 3 hrs, then 10 ng/mL IL-6 for 10 min
pIC50: −log10 of the molar value.

compound	measurement.target	pIC50
CC(C)(C)C(=O)OCOP(=O)(OCOC(=O)C(C)(C)C)C(F)(F)c1ccc2ccc(C(=O)NC3CN(CC(F)F)CCC4CCC(C(=O)N5CC(C#N)C(c6cc(F)cc(F)c6)C5)N4C3=O)cc2c1 (stereo not shown) [Compound 344]	pY705-STAT3 in Peripheral Blood Mononuclear Cells (PBMC)	5.52 to 6.00
CC(=O)N1CCC2CCC(C(=O)N3CC(c4ccccc4)CC34CC4)N2C(=O)C(NC(=O)c2ccc3ccc(C(F)(F)P(=O)(OCCSC(=O)CC(C)C)OCCSC(=O)CC(C)C)cc3c2)C1 (stereo not shown) [Compound 1]	pY705-STAT3 in Peripheral Blood Mononuclear Cells (PBMC)	< 5.52
CC(C)(C)C(=O)OCOP(=O)(OCOC(=O)C(C)(C)C)C(F)(F)c1ccc2ccc(C(=O)NC3CN(CC(F)F)CCC4CCC(C(=O)N5CCC(c6ccccc6)C(C#N)C5)N4C3=O)cc2c1 (stereo not shown) [Compound 345]	pY705-STAT3 in Peripheral Blood Mononuclear Cells (PBMC)	5.52 to 6.00
CC(C)(C)C(=O)OCOP(=O)(OCOC(=O)C(C)(C)C)C(F)(F)c1ccc2sc(C(=O)N[C@H]3CN(CC(F)F)CC[C@H]4CC[C@@H](C(=O)N5CC(C(=O)N6CCOCC6)C5)N4C3=O)cc2c1 [Compound 351]	pY705-STAT3 in Peripheral Blood Mononuclear Cells (PBMC)	≥ 7.00

* * *

The compounds listed here are annotated with their pIC50.
- Test system: pY641-STAT6 in Peripheral Blood Mononuclear Cells (PBMC)
- protocol.summary: MSD-pSTAT-PBMC Assay (pSTAT6, IL-4 stimulated)
- Format: cell-based, Human
- experimental.parameters: Homo sapiens, compound 3 hrs, then 1 ng/mL IL-4 for 10 min
pIC50: −log10 of the molar value.
assay.readout: pIC50

compound	measurement.target	assay.readout	value.reported
CCCOC(=O)[C@H](C)NP(=O)(Oc1ccccc1)C(F)c1ccc2ccc(C(=O)N[C@H]3CN(C(=O)c4noc5ccc(C)cc45)CC[C@H]4CC[C@@H](C(=O)N5CCOC[C@H]5c5ccccc5)N4C3=O)cc2c1 (some centres unmarked)	pY641-STAT6 in Peripheral Blood Mononuclear Cells (PBMC)	pIC50	≥ 7.00
CCCOC(=O)[C@H](C)NP(=O)(Oc1ccccc1)C(F)c1ccc2ccc(C(=O)N[C@H]3CN(C(=O)c4noc5ccc(OC)cc45)CC[C@H]4CC[C@@H](C(=O)N5CCOCC5)N4C3=O)cc2c1 (some centres unmarked)	pY641-STAT6 in Peripheral Blood Mononuclear Cells (PBMC)	pIC50	6.00 to 7.00
CC(=O)N1CC[C@H]2CC[C@@H](C(=O)N(C)c3ccc(C(C)(C)C)cc3)N2C(=O)[C@@H](NC(=O)c2cc3cc(C(F)(F)P(=O)(OCOC(=O)C(C)(C)C)OCOC(=O)C(C)(C)C)ccc3s2)C1	pY641-STAT6 in Peripheral Blood Mononuclear Cells (PBMC)	pIC50	≥ 7.00
CCCOC(=O)OC(C)OP(=O)(OC(C)OC(=O)OCCC)C(F)(F)c1ccc2sc(C(=O)N[C@H]3CN(C(C)=O)CC[C@H]4CC[C@@H](C(=O)N(C)c5ccccc5)N4C3=O)cc2c1 (some centres unmarked)	pY641-STAT6 in Peripheral Blood Mononuclear Cells (PBMC)	pIC50	< 5.52
CNC(=O)[C@@H]1CC[C@@H]2CCN(C(=O)c3n[nH]c4ccc(C)cc34)C[C@H](NC(=O)c3ccc4ccc(C(F)(F)P(=O)(OCCSC(=O)CC(C)C)OCCSC(=O)CC(C)C)cc4c3)C(=O)N21	pY641-STAT6 in Peripheral Blood Mononuclear Cells (PBMC)	pIC50	≥ 7.00
Cc1ccc2onc(C(=O)N3CC[C@H]4CC[C@@H](C(=O)N5C[C@H](c6cc[nH]c(=O)c6)CC56CC6)N4C(=O)[C@@H](NC(=O)c4ccc5ccc(C(F)(F)P(=O)(OCCSC(=O)C(C)(C)C)OCCSC(=O)C(C)(C)C)cc5c4)C3)c2c1	pY641-STAT6 in Peripheral Blood Mononuclear Cells (PBMC)	pIC50	≥ 7.00
CC(=O)N1CC[C@H]2CC[C@@H](C(=O)N3C[C@H](c4ccccc4)[C@@H](C#N)C3)N2C(=O)[C@@H](NC(=O)c2ccc3ccc(C(F)(F)P(=O)(OCOC(=O)C(C)(C)C)OCOC(=O)C(C)(C)C)cc3c2)C1 (mixture of isomers)	pY641-STAT6 in Peripheral Blood Mononuclear Cells (PBMC)	pIC50	≥ 7.00
CCCOC(=O)OCOP(=O)(OCOC(=O)OCCC)C(F)(F)c1ccc2sc(C(=O)N[C@H]3CN(C(C)=O)CC[C@H]4CC[C@@H](C(=O)N(C)c5ccccc5)N4C3=O)cc2c1	pY641-STAT6 in Peripheral Blood Mononuclear Cells (PBMC)	pIC50	6.00 to 7.00
CC(=O)N1CC[C@H]2CC[C@@H](C(=O)N3CCC[C@H]3Cc3ccccc3)N2C(=O)[C@@H](NC(=O)c2cc3cc(C(F)(F)P(=O)(OCOC(=O)C(C)(C)C)OCOC(=O)C(C)(C)C)ccc3s2)C1	pY641-STAT6 in Peripheral Blood Mononuclear Cells (PBMC)	pIC50	≥ 7.00
Cc1ccc2[nH]nc(C(=O)N3CC[C@H]4CC[C@@H](C(=O)N5CC(c6cc[nH]c(=O)c6)CC56CC6)N4C(=O)[C@@H](NC(=O)c4ccc5ccc(C(F)(F)P(=O)(OCCSC(=O)C(C)(C)C)OCCSC(=O)C(C)(C)C)cc5c4)C3)c2c1 (some centres unmarked)	pY641-STAT6 in Peripheral Blood Mononuclear Cells (PBMC)	pIC50	≥ 7.00
CC(=O)N1CC[C@H]2CC[C@@H](C(=O)N(C)c3ccc(-c4ccccc4)cc3)N2C(=O)[C@@H](NC(=O)c2cc3cc(C(F)(F)P(=O)(OCOC(=O)C(C)(C)C)OCOC(=O)C(C)(C)C)ccc3s2)C1	pY641-STAT6 in Peripheral Blood Mononuclear Cells (PBMC)	pIC50	6.00 to 7.00
CC(=O)N1CC[C@H]2CC[C@@H](C(=O)N(C)c3ccc(OCCN(C)C)cc3)N2C(=O)[C@@H](NC(=O)c2cc3cc(C(F)(F)P(=O)(OCOC(=O)C(C)(C)C)OCOC(=O)C(C)(C)C)ccc3s2)C1	pY641-STAT6 in Peripheral Blood Mononuclear Cells (PBMC)	pIC50	< 5.52
CC(=O)N1CC[C@H]2CC[C@@H](C(=O)Nc3ccc4nnccc4c3)N2C(=O)[C@@H](NC(=O)c2cc3cc(C(F)(F)P(=O)(OCOC(=O)C(C)(C)C)OCOC(=O)C(C)(C)C)ccc3s2)C1	pY641-STAT6 in Peripheral Blood Mononuclear Cells (PBMC)	pIC50	6.00 to 7.00
CCCOC(=O)[C@H](C)NP(=O)(Oc1ccccc1)[C@@H](F)c1ccc2ccc(C(=O)N[C@H]3CN(C(=O)c4noc5ccc(C)cc45)CC[C@H]4CC[C@@H](C(=O)N5C[C@H](c6ccn(C)c(=O)c6)CC56CC6)N4C3=O)cc2c1 (some centres unmarked)	pY641-STAT6 in Peripheral Blood Mononuclear Cells (PBMC)	pIC50	≥ 7.00
CC(=O)N1CC[C@H]2CC[C@@H](C(=O)N(C)c3ccccc3)N2C(=O)[C@@H](NC(=O)c2cc3cc(C(F)P(=O)(OCOC(=O)C(C)(C)C)OCOC(=O)C(C)(C)C)ccc3s2)C1 (some centres unmarked)	pY641-STAT6 in Peripheral Blood Mononuclear Cells (PBMC)	pIC50	6.00 to 7.00
CCCN(CCC)C(=O)OCOP(=O)(OCOC(=O)N(CCC)CCC)C(F)(F)c1ccc2sc(C(=O)N[C@@H]3CN(C(C)=O)CC[C@@H]4CC[C@H](C(=O)N(C)c5ccccc5)N4C3=O)cc2c1	pY641-STAT6 in Peripheral Blood Mononuclear Cells (PBMC)	pIC50	< 5.52
CCCOC(=O)[C@H](C)NP(=O)(Oc1ccccc1)C(F)c1ccc2ccc(C(=O)N[C@H]3CN(C(=O)c4noc5ccc(C)cc45)CC[C@H]4CC[C@@H](C(=O)N5CCN(c6nsc7ccccc67)CC5)N4C3=O)cc2c1 (some centres unmarked)	pY641-STAT6 in Peripheral Blood Mononuclear Cells (PBMC)	pIC50	< 5.52
